Ref: ChEMBL document CHEMBL1150522

System: Candida albicans
Assay: Minimum inhibitory concentration against Candida albicans (ATCC 62376) in the absence of serum.
Assay type: functional
MEASUREMENT NAME: MIC (µg/mL)

{"COMPOUND": "CCC(O)/C=C/C=C\\C=C\\C(=O)OC[C@H]1O[C@@H](O[C@H]2[C@H](OC(=O)/C=C/C=C/C[C@H](O)/C(C)=C/C=C/CCC(C)CC)[C@@H](O)[C@@]3(OCc4cc(O)cc(O)c43)O[C@@H]2CO)[C@H](O)[C@@H](O)[C@H]1O (stereo partly specified)", "RELATION SIGN": ">", "REPORTED MEASUREMENT": 100}
{"COMPOUND": "CCCCC/C=C/C=C/[C@@H](O)C/C=C/C=C/C(=O)O[C@@H]1[C@@H](O)[C@H](c2c(O)cc(O)cc2CO)O[C@H](CO)[C@H]1O[C@@H]1O[C@H](COC(=O)c2ccc(-c3ccc(OC(C)C)cc3)cc2)[C@H](O)[C@H](O)[C@H]1O[C@@H]1O[C@H](CO)[C@H](O)[C@H](O)[C@H]1O", "RELATION SIGN": "=", "REPORTED MEASUREMENT": 12.5}
{"COMPOUND": "CCCCC/C=C/C=C/[C@@H](O)C/C=C/C=C/C(=O)O[C@@H]1[C@@H](O)[C@H](c2c(O)cc(O)cc2CO)O[C@H](CO)[C@H]1O[C@@H]1O[C@H](COC(=O)c2ccc(-c3ccccc3)cc2)[C@H](O)[C@H](O)[C@H]1O[C@@H]1O[C@H](CO)[C@H](O)[C@H](O)[C@H]1O", "RELATION SIGN": "=", "REPORTED MEASUREMENT": 12.5}
{"COMPOUND": "CCCCC/C=C/C=C/[C@@H](O)C/C=C/C=C/C(=O)O[C@@H]1[C@@H](O)[C@H](c2c(O)cc(O)cc2CO)O[C@H](CO)[C@H]1O[C@@H]1O[C@H](COC(=O)c2ccc(-c3ccccc3OC)cc2)[C@H](O)[C@H](O)[C@H]1O[C@@H]1O[C@H](CO)[C@H](O)[C@H](O)[C@H]1O", "RELATION SIGN": "=", "REPORTED MEASUREMENT": 50}
{"COMPOUND": "CCCCC/C=C/C=C/[C@@H](O)C/C=C/C=C/C(=O)O[C@@H]1[C@@H](O)[C@H](c2c(O)cc(O)cc2CO)O[C@H](CO)[C@H]1O[C@@H]1O[C@H](COC(=O)c2ccc(CCCC)cc2)[C@H](O)[C@H](O)[C@H]1O[C@@H]1O[C@H](CO)[C@H](O)[C@H](O)[C@H]1O", "RELATION SIGN": ">", "REPORTED MEASUREMENT": 100}
{"COMPOUND": "CCCCC/C=C/C=C/[C@@H](O)C/C=C/C=C/C(=O)O[C@@H]1[C@@H](O)[C@H](c2c(O)cc(O)cc2CO)O[C@H](CO)[C@H]1O[C@@H]1O[C@H](COC(=O)c2cccc3ccccc23)[C@H](O)[C@H](O)[C@H]1O[C@@H]1O[C@H](CO)[C@H](O)[C@H](O)[C@H]1O", "RELATION SIGN": "=", "REPORTED MEASUREMENT": 100}
